Where these numbers come from: ChEMBL document CHEMBL5678806

biological target: Insulin receptor (Homo sapiens, UniProt P06213)
Sequence (P06213 28-758 limits assumed): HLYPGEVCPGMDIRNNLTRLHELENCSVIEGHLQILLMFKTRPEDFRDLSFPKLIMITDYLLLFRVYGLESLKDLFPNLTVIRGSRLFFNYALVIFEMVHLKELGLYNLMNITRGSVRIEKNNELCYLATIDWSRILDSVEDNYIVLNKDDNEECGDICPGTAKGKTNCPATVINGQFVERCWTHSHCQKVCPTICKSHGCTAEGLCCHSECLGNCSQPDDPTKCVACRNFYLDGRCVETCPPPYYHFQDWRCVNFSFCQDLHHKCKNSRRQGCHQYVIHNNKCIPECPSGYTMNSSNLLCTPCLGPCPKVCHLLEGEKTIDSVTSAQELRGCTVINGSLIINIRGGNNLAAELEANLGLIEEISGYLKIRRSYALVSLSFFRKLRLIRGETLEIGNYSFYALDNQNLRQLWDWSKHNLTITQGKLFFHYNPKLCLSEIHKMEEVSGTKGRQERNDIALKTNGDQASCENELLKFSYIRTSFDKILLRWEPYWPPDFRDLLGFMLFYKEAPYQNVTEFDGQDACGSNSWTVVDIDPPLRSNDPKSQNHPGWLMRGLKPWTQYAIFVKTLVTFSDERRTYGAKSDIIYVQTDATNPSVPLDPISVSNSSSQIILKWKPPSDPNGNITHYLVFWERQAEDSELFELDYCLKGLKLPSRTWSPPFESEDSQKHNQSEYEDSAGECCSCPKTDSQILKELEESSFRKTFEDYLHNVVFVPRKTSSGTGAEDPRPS
Sequence (P06213 763-1382 limits assumed): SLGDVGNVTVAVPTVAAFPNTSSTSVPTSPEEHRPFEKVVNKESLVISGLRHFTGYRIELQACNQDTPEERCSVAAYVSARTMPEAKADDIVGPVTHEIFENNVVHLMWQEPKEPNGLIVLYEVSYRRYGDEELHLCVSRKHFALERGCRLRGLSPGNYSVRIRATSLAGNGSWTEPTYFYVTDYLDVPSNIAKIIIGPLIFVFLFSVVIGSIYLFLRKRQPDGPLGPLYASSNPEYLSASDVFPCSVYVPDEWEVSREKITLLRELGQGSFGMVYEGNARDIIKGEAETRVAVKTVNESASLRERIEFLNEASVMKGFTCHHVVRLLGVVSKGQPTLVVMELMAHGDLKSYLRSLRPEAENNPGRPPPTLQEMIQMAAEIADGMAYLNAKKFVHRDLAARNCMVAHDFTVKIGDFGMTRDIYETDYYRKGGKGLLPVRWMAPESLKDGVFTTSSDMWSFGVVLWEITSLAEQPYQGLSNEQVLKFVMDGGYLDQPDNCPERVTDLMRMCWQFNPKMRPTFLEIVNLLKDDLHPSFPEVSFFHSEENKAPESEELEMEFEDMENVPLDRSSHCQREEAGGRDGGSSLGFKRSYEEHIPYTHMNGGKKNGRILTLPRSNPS
pIC50: −log10 of the molar value.
endpoint-label: pIC50

Input line: For Insulin receptor (Homo sapiens, UniProt P06213), provide pIC50 of CN1CCN(c2ccc(OC(F)(F)F)c(Nc3ncc4c(n3)-c3c(c(C(N)=O)nn3CCO)CC4)c2)CC1 [ONVANSERTIB] please.
Output line: < 5.00

---

tested on: 786-0; assay: Antiproliferative activity against human 786-0 cells assessed as inhibition of cell growth incubated for 72 hrs by cell-titer glo assay; format: functional, cell-based; conditions: 786-0, 72 h
endpoint-label: IC50 (nM)
Respond with the bare value in nM.

Input line: Any idea what IC50 was measured for CN1CCN(c2ccc(OC(F)(F)F)c(Nc3ncc4c(n3)-c3c(c(C(N)=O)nn3CCO)CC4)c2)CC1 [ONVANSERTIB] ?
Output line: 129
